I'd be grateful if you could share measured AUC for these entries.
Assay: AUC in rat at 5 mg/kg, po in DMSO/PEG400 formulation
Assay type: ADME, organism-based
Parameters: dose 5 mg/kg, route oral
Details: plasma
Numbers only here, please. The scale is ng·h/mL.

Could you please provide reported AUC for Cc1nc([C@H](C(=O)N2CCC2)N2C(=O)[C@@H](C3Cc4ccccc4C3)NC(=O)[C@H]2CC(C)C)co1 ? Thanks! 1070

Could you please provide reported AUC for Cc1nc([C@H](C(=O)N(C)CCO)N2C(=O)[C@@H](C3Cc4ccccc4C3)NC(=O)[C@H]2CC(C)C)co1 ? Thanks! 218

Could you please provide reported AUC for CC[C@@H](C)[C@@H]1C(=O)N[C@H](C2Cc3ccccc3C2)C(=O)N1[C@@H](C(=O)N1CCOCC1)c1coc(C)n1 ? Thanks! 4200

Could you please provide reported AUC for Cc1nc([C@H](C(=O)NC(C)C)N2C(=O)[C@@H](C3Cc4ccccc4C3)NC(=O)[C@H]2CC(C)C)co1 ? Thanks! 225

Could you please provide reported AUC for CC[C@H](C)[C@@H]1C(=O)N[C@H](C2Cc3ccccc3C2)C(=O)N1[C@@H](C(=O)N1CCOCC1)c1coc(C)n1 ? Thanks! 5470

Could you please provide reported AUC for Cc1nc([C@H](C(=O)N2CCOCC2)N2C(=O)[C@@H](C3Cc4ccccc4C3)NC(=O)[C@H]2CC(C)C)co1 ? Thanks! 3630
